test: Toxicity against human HL7702 cells assessed as reduction in cell survival at 10 uM incubated for 24 hrs by MTT assay; format: cell-based; conditions: l02, 24 h
recorded-metric: Activity

Sample answers from the record:
INSERT INTO measurements (test_smiles, recorded_metric, result) VALUES
  ('COc1ccc(C(=O)/C=C/c2cc(OC)c(OC)c(OC)c2)cc1/N=C/c1ccccc1Br', 'Activity', 'Non-toxic'),
  ('COc1ccc(C(=O)/C=C/c2cc(OC)c(OC)c(OC)c2)cc1/N=C/c1ccc(O)c(Br)c1', 'Activity', 'Non-toxic'),
  ('COc1ccc(C(=O)/C=C/c2cc(OC)c(OC)c(OC)c2)cc1/N=C/c1cccc(OC)c1O', 'Activity', 'Non-toxic'),
  ('COc1ccc(C(=O)/C=C/c2cc(OC)c(OC)c(OC)c2)cc1/N=C/c1ccccc1O', 'Activity', 'Non-toxic');

# context switch: different compound, same Activity
# Activity (compound: COc1ccc(C(=O)/C=C/c2cc(OC)c(OC)c(OC)c2)cc1/N=C/c1cccc(O)c1O ) is Non-toxic
